# tested-on: E. coli Uridine-diphosphate-N-acetvimuramoyl: L-alanine lipase, MurC (Escherichia coli)
# Sequence (P17952 whole entry): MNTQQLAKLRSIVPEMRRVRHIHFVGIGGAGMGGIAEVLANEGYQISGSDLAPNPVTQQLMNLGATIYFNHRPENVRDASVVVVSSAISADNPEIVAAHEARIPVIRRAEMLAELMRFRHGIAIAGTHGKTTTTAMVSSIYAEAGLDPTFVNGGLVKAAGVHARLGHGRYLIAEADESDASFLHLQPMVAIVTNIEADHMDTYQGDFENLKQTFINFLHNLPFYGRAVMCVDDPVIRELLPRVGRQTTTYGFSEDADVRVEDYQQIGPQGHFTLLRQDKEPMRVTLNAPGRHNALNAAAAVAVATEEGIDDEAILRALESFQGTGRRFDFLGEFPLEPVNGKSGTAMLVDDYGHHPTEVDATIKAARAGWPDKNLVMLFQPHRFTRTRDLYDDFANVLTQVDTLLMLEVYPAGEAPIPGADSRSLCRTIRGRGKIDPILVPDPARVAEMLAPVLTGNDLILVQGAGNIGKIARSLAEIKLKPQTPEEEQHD
# test-details: Inhibitory activity against MurC (E. coli)
# Assay type: biochemical
# test-settings: (E) E. coli enzyme; read-out: MurC IC50 (converted)
Assign IC50 to each entry below.

Challenge: Recorded IC50 of CCOc1ccc(-c2ccc(C3=C(O)/C(=C/c4cc(C(F)(F)F)ccc4Cl)OC3=O)cc2)cc1 , please.
Response given: 14.4 µM

Challenge: Moving on to the next molecule: COc1ccc(C2=C(O)/C(=C/c3ccc4ccccc4c3)OC2=O)cc1
Response given: 37.8 µM

Challenge: Please answer likewise for O=C1O/C(=C\c2ccc(-c3ccccc3)cc2)C(O)=C1c1ccc(Cl)cc1Cl
Response given: 7.33 µM

Challenge: Item: CCOc1ccc(-c2ccc(C3=C(O)/C(=C/c4ccc(Cl)c(C(F)(F)F)c4)OC3=O)cc2)cc1
Response given: > 51.3 µM

Challenge: Next entry: COc1cccc(C2=C(O)/C(=C/c3cccc4ccccc34)OC2=O)c1
Response given: > 72.6 µM

Challenge: One more molecule: COc1ccc(C2=C(O)/C(=C/c3ccc(-c4ccccc4)cc3)OC2=O)cc1
Response given: > 67.5 µM

Challenge: Proceed to O=C1O/C(=C\c2ccc3ccccc3c2)C(O)=C1c1cccc2ccccc12
Response given: 13.7 µM

Challenge: Now consider CCOc1ccc(-c2ccc(C3=C(O)/C(=C/c4cc(C(F)(F)F)ccc4F)OC3=O)cc2)cc1 .
Response given: > 53.1 µM
